Biological target: Mcl-1 protein (UniProtKB Q07820) (Homo sapiens (Human), UniProt Q07820)
Sequence (Q07820 whole entry): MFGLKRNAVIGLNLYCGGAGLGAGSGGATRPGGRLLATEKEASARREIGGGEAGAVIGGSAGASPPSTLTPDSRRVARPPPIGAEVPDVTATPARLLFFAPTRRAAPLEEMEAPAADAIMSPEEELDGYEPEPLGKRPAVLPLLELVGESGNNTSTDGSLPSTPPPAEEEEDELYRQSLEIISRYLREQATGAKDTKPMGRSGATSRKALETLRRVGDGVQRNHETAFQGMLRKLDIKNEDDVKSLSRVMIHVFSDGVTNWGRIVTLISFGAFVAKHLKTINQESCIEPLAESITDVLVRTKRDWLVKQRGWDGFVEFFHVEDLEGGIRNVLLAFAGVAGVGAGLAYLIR
Test: Inhibition of Mcl-1 by the fluorescence polarisation assay (Example A, Method A)
Settings: fluorescence polarization assay
Quantity name: Ki (µM)
Supply the numeric figure in µM, leaving out any unit text.

Prompt line: Name the recorded Ki of O=C(O)[C@]1(Nc2cccc(Cl)c2)CC[C@@]2(CC1)c1ccccc1CC2CCCOc1ncncc1C1CC1 (mixture of isomers) , assay system Mcl-1 protein (UniProtKB Q07820) (Homo sapiens (Human), UniProt Q07820).
Response line: 0.0754

Prompt line: Name the recorded Ki of "COCCOc1ccc2c(c1)[C@]1(CC2)CC[C@](Nc2cccc(Br)c2)(C(=O)O)CC1" , assay system Mcl-1 protein (UniProtKB Q07820) (Homo sapiens (Human), UniProt Q07820).
Response line: 0.101

Prompt line: Name the recorded Ki of "CN1c2ccc(/C=C/Cc3ccccc3)cc2[C@]2(CC[C@](Nc3cccc(Br)c3)(C(=O)O)CC2)C1=O" , assay system Mcl-1 protein (UniProtKB Q07820) (Homo sapiens (Human), UniProt Q07820).
Response line: 21.1

Prompt line: Name the recorded Ki of "O=C(O)[C@]1(Nc2cccc(Br)c2)CC[C@@]2(CCc3ccc(O)cc32)CC1" , assay system Mcl-1 protein (UniProtKB Q07820) (Homo sapiens (Human), UniProt Q07820).
Response line: 0.24
